- target-entity: full-length ATR (Homo sapiens (Human))
- Sequence (Q13535 whole entry): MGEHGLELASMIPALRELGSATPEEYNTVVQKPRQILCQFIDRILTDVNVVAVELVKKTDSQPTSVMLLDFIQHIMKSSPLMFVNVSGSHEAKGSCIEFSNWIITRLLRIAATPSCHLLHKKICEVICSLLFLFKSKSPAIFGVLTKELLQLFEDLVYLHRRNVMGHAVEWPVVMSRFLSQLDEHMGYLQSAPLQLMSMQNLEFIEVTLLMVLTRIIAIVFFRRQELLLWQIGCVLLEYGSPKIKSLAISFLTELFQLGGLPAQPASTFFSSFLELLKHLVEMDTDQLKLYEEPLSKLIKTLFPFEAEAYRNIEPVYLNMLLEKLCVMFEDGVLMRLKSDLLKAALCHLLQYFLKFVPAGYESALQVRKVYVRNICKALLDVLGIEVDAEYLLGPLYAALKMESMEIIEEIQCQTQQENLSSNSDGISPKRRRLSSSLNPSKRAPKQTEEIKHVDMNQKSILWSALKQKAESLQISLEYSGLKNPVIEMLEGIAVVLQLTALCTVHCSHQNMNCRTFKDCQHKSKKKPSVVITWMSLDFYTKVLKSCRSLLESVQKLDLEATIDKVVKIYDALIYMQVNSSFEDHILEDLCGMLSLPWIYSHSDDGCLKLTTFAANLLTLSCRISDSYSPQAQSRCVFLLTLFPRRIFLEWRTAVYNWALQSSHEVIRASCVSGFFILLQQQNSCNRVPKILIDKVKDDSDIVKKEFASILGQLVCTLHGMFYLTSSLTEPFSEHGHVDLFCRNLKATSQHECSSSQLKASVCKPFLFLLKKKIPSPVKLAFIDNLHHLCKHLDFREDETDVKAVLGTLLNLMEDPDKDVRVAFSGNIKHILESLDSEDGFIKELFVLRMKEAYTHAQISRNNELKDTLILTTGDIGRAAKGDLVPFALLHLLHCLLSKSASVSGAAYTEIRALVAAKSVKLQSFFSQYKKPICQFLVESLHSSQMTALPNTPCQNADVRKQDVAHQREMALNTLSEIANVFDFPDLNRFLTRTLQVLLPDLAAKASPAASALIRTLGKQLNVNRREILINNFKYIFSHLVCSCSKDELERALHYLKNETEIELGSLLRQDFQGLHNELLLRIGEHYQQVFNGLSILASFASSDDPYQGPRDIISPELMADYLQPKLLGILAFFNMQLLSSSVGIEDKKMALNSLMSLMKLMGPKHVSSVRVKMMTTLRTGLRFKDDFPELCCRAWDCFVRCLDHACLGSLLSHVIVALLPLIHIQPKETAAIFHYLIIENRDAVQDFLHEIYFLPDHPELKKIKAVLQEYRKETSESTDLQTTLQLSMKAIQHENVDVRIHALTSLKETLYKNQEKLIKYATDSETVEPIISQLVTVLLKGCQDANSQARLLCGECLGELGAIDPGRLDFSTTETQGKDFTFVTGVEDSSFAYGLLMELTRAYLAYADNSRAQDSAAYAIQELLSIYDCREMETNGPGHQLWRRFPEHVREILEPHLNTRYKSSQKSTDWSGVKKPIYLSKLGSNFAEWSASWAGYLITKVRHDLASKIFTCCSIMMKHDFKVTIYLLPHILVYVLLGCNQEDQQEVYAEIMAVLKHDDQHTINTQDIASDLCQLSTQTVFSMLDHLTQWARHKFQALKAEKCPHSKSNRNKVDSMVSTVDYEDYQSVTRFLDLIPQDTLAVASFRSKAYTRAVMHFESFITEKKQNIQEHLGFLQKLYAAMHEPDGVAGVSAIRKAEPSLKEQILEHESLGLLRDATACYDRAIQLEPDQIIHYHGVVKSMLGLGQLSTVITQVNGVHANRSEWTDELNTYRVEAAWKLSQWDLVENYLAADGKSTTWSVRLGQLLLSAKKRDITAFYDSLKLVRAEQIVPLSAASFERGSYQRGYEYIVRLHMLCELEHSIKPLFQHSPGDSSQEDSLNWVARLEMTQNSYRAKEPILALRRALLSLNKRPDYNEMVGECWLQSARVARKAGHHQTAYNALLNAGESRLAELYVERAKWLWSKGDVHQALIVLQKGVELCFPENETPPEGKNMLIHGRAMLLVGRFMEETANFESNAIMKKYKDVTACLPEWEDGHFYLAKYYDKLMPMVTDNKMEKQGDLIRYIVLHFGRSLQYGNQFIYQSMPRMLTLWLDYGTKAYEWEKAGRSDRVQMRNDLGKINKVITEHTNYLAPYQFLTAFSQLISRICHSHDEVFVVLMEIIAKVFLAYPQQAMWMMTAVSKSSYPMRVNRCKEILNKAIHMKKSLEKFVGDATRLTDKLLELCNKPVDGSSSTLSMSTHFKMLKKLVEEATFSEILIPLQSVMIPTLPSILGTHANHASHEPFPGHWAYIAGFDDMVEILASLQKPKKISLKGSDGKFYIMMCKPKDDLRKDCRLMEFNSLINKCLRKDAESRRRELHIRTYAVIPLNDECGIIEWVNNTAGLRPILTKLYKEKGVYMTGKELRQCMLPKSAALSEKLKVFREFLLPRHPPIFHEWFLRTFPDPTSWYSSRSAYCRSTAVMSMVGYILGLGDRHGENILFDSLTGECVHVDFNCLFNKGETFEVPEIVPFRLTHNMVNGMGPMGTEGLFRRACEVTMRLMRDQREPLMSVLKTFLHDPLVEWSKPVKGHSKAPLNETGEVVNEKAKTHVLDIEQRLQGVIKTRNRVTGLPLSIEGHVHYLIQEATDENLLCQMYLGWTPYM
- protocol-summary: ATR Inhibition Assay (radioactive-phosphate incorporation)
- Type: biochemical
- settings: read-out: ATR Ki
pKi: −log10 of the molar value.
I'd appreciate it if you could supply pKi values for the items below.

A selection of reference data follows.
Nc1ncc(-c2cccnc2)nc1C(=O)Nc1ccccc1OC(F)(F)F = 7.00 to 8.00
Nc1ncc(-c2ccccc2CO)nc1-c1nc2ccccc2[nH]1 = 5.30 to 7.00
CC(=O)c1ccc(-c2cnc(N)c(C(=O)Nc3ccccc3)n2)cc1 = 5.30 to 7.00
CS(=O)(=O)c1ccc(-c2cnc(N)c(-c3nc4cccc(O)c4[nH]3)n2)cc1 = ≥ 8.00
CN1CCN(C(=O)c2cccc(-c3cnc(N)c(C(=O)Nc4ccccc4)n3)c2)CC1 = 5.30 to 7.00

# per-item lookup of pKi; items listed below
1. CC(C)S(=O)(=O)c1ccc(-c2cnc(N)c(-c3nnc(-c4ccc(C5CCCN5)s4)o3)n2)cc1 (centres unmarked)
2. CN(C)C(=O)c1ccc(-c2cnc(N)c(-c3nnc(-c4cccn4C)o3)n2)cc1
3. Cc1ccccc1-c1cnc(N)c(C(=O)Nc2ccccc2)n1

≥ 8.00
≥ 8.00
5.30 to 7.00
